Origin of measurements: ChEMBL document CHEMBL2146430

molecular target: Serine/threonine-protein kinase pim-1 (Homo sapiens, UniProt P11309); test: Inhibition of PIM1 using 5-FAM-RSRHSSYPAGT-CONH2 as substrate after 2 hrs by electrophoretic mobility shift assay
Sequence (P11309 whole entry): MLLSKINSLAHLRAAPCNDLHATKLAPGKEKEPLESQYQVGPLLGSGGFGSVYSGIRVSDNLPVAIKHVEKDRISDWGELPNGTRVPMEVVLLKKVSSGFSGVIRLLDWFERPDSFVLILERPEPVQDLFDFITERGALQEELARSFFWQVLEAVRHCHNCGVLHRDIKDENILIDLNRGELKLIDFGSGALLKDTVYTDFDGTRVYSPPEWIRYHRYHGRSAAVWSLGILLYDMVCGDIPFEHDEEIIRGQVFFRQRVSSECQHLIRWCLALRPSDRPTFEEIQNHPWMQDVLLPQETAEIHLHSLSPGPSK
Recorded measurements of IC50, one per entry
observation.type: IC50 (nM)

| smiles.entry | result.unit | reported.result |
| --- | --- | --- |
| CCCOc1ccc2c(c1CN1CCNCC1)O/C(=C\c1c[nH]c3ccccc13)C2=O | nM | 12 |
| O=C1/C(=C/c2c[nH]c3ccccc23)Oc2c1ccc(O)c2CN1CCCCCC1 | nM | 410 |
| O=C1/C(=C/c2c[nH]c3ccccc23)Oc2c(CN3CCNCC3)cccc21 | nM | 20 |
| CN1CCN(Cc2c(O)ccc3c2O/C(=C\c2c[nH]c4ccccc24)C3=O)CC1 | nM | 388 |
| COc1ccc2c(c1CN1CCNCC1)O/C(=C\c1n[nH]c3ccccc13)C2=O | nM | 3 |
| COc1ccc2c(c1CN1CCNCC1)O/C(=C\c1c[nH]c3ncccc13)C2=O | nM | 2 |
| O=C1/C(=C/c2c[nH]c3ccccc23)Oc2c1ccc(OCc1ccccc1)c2CN1CCNCC1 | nM | 43 |
| O=C1/C(=C/c2c[nH]c3ccccc23)Oc2c1ccc(O)c2CN1CCCNCC1 | nM | 102 |
| CCOc1ccc2c(c1CN1CCNCC1)O/C(=C\c1c[nH]c3ccccc13)C2=O | nM | 6 |
| COc1ccc2c(c1CN1CCNCC1)O/C(=C\c1c[nH]c3cccnc13)C2=O | nM | 447 |
| O=C1/C(=C/c2c[nH]c3ccccc23)Oc2c1ccc(O)c2CN1CCNCC1 | nM | 17 |
| COc1ccc2c(c1CN1CCNCC1)O/C(=C\c1c[nH]c3ccncc13)C2=O | nM | 53 |

====

target: UniProt Q12809; experiment: Inhibition of human ERG at 1 uM by patch clamp assay
Sequence (Q12809 whole entry): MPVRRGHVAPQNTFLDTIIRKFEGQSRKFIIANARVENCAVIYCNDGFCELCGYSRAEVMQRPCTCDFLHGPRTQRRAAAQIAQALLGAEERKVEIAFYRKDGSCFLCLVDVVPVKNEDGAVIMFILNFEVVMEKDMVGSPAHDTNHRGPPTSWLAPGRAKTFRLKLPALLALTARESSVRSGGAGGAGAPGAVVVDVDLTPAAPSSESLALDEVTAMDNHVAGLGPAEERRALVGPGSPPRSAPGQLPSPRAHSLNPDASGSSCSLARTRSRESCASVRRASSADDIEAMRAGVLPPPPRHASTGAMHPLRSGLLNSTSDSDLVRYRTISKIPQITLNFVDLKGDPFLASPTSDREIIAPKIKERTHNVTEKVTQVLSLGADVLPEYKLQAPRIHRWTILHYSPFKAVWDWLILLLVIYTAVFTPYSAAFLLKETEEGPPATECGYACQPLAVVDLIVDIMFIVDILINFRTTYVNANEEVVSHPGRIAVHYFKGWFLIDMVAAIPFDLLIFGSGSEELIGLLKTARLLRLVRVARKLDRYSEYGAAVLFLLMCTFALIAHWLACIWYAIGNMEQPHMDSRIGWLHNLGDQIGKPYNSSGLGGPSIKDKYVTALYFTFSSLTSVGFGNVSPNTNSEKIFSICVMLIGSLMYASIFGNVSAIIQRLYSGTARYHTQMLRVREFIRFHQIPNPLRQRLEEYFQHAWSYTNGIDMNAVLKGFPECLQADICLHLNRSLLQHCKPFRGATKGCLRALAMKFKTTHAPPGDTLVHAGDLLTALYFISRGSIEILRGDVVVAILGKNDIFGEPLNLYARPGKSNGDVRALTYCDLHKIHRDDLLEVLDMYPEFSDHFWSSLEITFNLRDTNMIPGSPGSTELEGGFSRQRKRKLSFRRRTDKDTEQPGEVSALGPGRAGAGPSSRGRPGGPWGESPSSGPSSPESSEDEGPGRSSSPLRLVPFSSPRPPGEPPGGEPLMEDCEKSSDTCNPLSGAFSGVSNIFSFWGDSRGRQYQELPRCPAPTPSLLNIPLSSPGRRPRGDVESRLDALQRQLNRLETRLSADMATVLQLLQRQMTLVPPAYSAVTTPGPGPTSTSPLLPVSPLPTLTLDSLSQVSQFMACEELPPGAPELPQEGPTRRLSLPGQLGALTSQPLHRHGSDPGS

| smiles.entry | inhibition at 1 µM [%] |
| --- | --- |
| COc1ccc2c(c1CN1CCNCC1)O/C(=C\c1n[nH]c3ccccc13)C2=O | 13 |

====

molecular target: CYP2D6 (Homo sapiens); experiment: Inhibition of CYP2D6 at 10 uM; assay type: ADME
Sequence (P10635 whole entry): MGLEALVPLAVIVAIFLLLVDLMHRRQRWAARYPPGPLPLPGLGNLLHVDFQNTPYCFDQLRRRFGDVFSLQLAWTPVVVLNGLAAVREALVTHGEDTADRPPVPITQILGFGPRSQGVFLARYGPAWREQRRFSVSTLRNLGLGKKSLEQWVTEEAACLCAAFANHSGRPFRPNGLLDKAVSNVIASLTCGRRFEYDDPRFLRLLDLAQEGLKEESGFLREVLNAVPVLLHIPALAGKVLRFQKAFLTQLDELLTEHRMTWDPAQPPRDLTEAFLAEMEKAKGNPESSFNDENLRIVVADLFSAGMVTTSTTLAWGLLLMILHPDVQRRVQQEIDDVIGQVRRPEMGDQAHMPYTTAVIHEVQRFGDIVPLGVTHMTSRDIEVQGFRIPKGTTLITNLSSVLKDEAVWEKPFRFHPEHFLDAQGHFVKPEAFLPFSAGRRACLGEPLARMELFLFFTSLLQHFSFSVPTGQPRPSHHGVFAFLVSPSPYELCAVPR
observation.type: inhibition at 10 µM (%)

| smiles.entry | observation.type | reported.result |
| --- | --- | --- |
| COc1ccc2c(c1CN1CCNCC1)O/C(=C\c1n[nH]c3ccccc13)C2=O | inhibition at 10 µM | 11 |

====

test: Metabolic stability in mouse liver microsomes assessed as compound remaining at 1 uM after 1 hr; format: ADME, Microsome; conditions: read-out: Stability
observation.type: remaining at 1 h, 1 µM (%)

| smiles.entry | observation.type | reported.result |
| --- | --- | --- |
| COc1ccc2c(c1CN1CCNCC1)O/C(=C\c1c[nH]c3ccccc13)C2=O | remaining at 1 h, 1 µM | 86 |
| COc1ccc2c(c1CN1CCNCC1)O/C(=C\c1n[nH]c3ccccc13)C2=O | remaining at 1 h, 1 µM | 92 |
| O=C1/C(=C/c2c[nH]c3ccccc23)Oc2c1ccc(O)c2CN1CCNCC1 | remaining at 1 h, 1 µM | 71 |
| O=C1/C(=C/c2c[nH]c3ccccc23)Oc2c1ccc(O)c2CN1CCCCCC1 | remaining at 1 h, 1 µM | 44 |
